Test: qHTS for Inhibitors of human tyrosyl-DNA phosphodiesterase 1 (TDP1): qHTS in cells in absence of CPT; further: nearly all actives have a fitted effect of over 55% in size
Details: DT40 Tdp1-/- hTDP1 cells, no CPT, ATP luminescence, 48 h; series mostly up to 46.2 µM
About 64,000 (15%) of roughly 420,000 compounds were called active. Not shown: some 27% with an inconclusive outcome. The call rests on the fitted dose curve; in most records, active means well fitted inhibition curve with a large enough effect; inconclusive means small, poorly fitted or top-dose-only effect; inactive means flat fitted curve, though single readings scatter. Many of the other results were omitted from the sample, so actives are more common in it than they were.
Lab note: assign the record to one of active, inactive

compound	class_label
CCCCn1c(=O)c(C(=O)Nc2ccccc2Cl)c(O)c2ccccc21	active
CCC(=O)OC(Cc1ccccc1)(c1ccccc1)C(C)CN(C)C (stereo unspecified)	inactive
OC(CNC1CCCCC1)c1ccccc1 (stereo unspecified)	inactive

# outcome recorded in this test, key = "N#Cc1ccc(Cn2cc(C(=O)c3ccco3)c3ccccc32)cc1" active

# outcome recorded in this test, key = "O=c1c2ccccc2nc(/C=C/c2ccc(F)cc2)n1-c1ccccc1O" active

# outcome recorded in this test, key = "CCC/C(=N\O)c1c[nH]c2ccccc12" inactive

# outcome recorded in this test, key = Cc1ccc(Cl)cc1N1CCN(C(=O)C2CCC(CNS(=O)(=O)c3cccs3)CC2)CC1 (stereo unspecified) active

# outcome recorded in this test, key = "N#CC(C#N)=Cc1cc(O)c(O)c([N+](=O)[O-])c1" inactive

---

Experiment: qHTS for Inhibitors of human tyrosyl-DNA phosphodiesterase 1 (TDP1): qHTS in cells in absence of CPT; further: nearly all actives have a fitted effect of over 55% in size
Settings: DT40 Tdp1-/- hTDP1 cells, no CPT, ATP luminescence, 48 h; series mostly up to 46.2 µM
Protocol: Human tyrosyl-DNA phosphodiesterase 1 (TDP1) is a novel repair gene, and we propose to use it as a new target for anticancer drug development. […] For the primary screen, Tdp1-/-;hTDP1 cells will be exposed to small molecules in the presence or absence of CPT, and their growth kinetics will be evaluated after 48 hours by measuring ATP activity. […] The hit compounds will then be evaluated in the presence or absence of CPT using Tdp1-/- cells. […]
Hit rate of the full screen: of about 420,000 compounds, about 64,000 (15%) were called active. Not shown: some 27% with an inconclusive outcome. Calls come from the whole dose curve; as a rule, active = well fitted inhibition curve with a large enough effect; inconclusive = small, poorly fitted or top-dose-only effect; inactive = flat fitted curve, though single readings scatter. Many of the other results were omitted from the sample, so actives are more common in it than they were.
Lab note: assign the record to one of active, inactive

Observe how each entry below is paired with its result.
compound	class_label
COC(=O)C1=C(c2ccccc2)C[C@@H]2CC[C@H]1N2C(=O)NCc1ccco1	inactive
C/C(CCc1c[nH]c2ccccc12)=N\O	inactive
COc1cccc(C(c2nnnn2-c2ccc3c(c2)OCCO3)N2CCC3(CC2)C(=O)NCN3c2ccccc2)c1OC (stereo not given)	active
COC(=O)C1=C(c2ccc(OCc3ccccc3)cc2)C[C@@H]2CC[C@H]1N2C(=O)NCc1ccc(Cl)cc1	active
O=C(Cc1ccccc1[N+](=O)[O-])N1CCN(Cc2ccc3c(c2)OCO3)CC1	inactive
Cc1ccc(S(=O)(=O)N2CCCc3cc(NS(=O)(=O)c4cc(C)ccc4C)ccc32)cc1	active

Note: attention shifts to another entry.
# outcome recorded in this test, key = "Cc1ccc(NC(=O)N(Cc2ccc3c(c2)OCO3)C2CCN(Cc3ccccc3)CC2)cc1F" active

---

Assay: qHTS for Inhibitors of human tyrosyl-DNA phosphodiesterase 1 (TDP1): qHTS in cells in absence of CPT; further: nearly all actives have a fitted effect of over 55% in size
Settings: DT40 Tdp1-/- hTDP1 cells, no CPT, ATP luminescence, 48 h; series mostly up to 46.2 µM
Hit rate of the full screen: of about 420,000 compounds, about 64,000 (15%) were called active. Inconclusive results (about 27%) are left out. The call rests on the fitted dose curve; in most records, active means well fitted inhibition curve with a large enough effect; inconclusive means small, poorly fitted or top-dose-only effect; inactive means flat fitted curve, though single readings scatter. The sample as a whole holds a higher share of actives than the screen did.
Lab note: assign the record to one of label 1 (active), label 0 (inactive)

# outcome recorded in this test, key = "O=C(Cc1ccc(Cl)cc1)NCCN1CCN(C(=O)Cc2ccc(Cl)cc2)CC1" label 0

# outcome recorded in this test, key = "CC(=O)Nc1cc(-c2cccc(CO)c2)cn2c(-c3cccc(C(F)(F)F)c3)cnc12" label 1

# outcome recorded in this test, key = NCC(O)c1ccc(O)cc1 (stereo unspecified) label 0

# outcome recorded in this test, key = C[C@]12CCC3C(CC[C@H]4C[C@@H](O)CC[C@]34C)C1CC[C@@H]2O (stereo partly specified) label 0

# outcome recorded in this test, key = "COc1cc(OC)cc(C2(C#N)CCN(C)CC2)c1" label 0

# outcome recorded in this test, key = CC12CN3CC(C)(CN(C1)C3c1cccs1)C2 (stereo unspecified) label 0

# outcome recorded in this test, key = CC(=NCC1CCCO1)c1c(O)n(-c2ccccc2)c(=O)[nH]c1=O (stereo unspecified) label 0

# outcome recorded in this test, key = "Cc1ccc(-c2cc(C(=O)N3CCC4(CC3)OCCO4)no2)cc1" label 0

# outcome recorded in this test, key = "O=C(c1ccccc1[N+](=O)[O-])N1CCC2(CC1)OCCO2" label 0

# outcome recorded in this test, key = "COc1ccc(N=Cc2c(O)n(C)c(=O)[nH]c2=O)cc1" label 0

# outcome recorded in this test, key = "NC(=O)Nc1cccc(C(F)(F)F)c1" label 0

Provenance of the data: PubChem BioAssay AID686978
